Test: Solubility in lipofullerene base, confirmed by a turbidometer
Settings: 12 h
Record form. Attribute: Fold solubility. Fill in for each entry.
Give bare numbers.

For each of the items listed, what is its Fold solubility?
1. C#Cc1cccc(Nc2ncnc3cc(OCCOC)c(OCCOC)cc23)c1
2. CC[C@]1(O)C[C@H]2CN(CCc3c([nH]c4ccccc34)[C@@](C(=O)OC)(c3cc4c(cc3OC)N(C=O)[C@H]3[C@@](O)(C(=O)OC)[C@H](OC(C)=O)[C@]5(CC)C=CCN6CC[C@]43[C@@H]65)C2)C1
3. CC(=O)O[C@H]1C(=O)[C@@]2(C)[C@H]([C@H](OC(=O)c3ccccc3)[C@]3(O)C[C@H](OC(=O)[C@H](O)[C@@H](NC(=O)c4ccccc4)c4ccccc4)C(C)=C1C3(C)C)[C@]1(OC(C)=O)CO[C@@H]1C[C@@H]2O

[3, 17, 90]
